# Emax annotations
molecular target: Glucose-dependent insulinotropic receptor (Homo sapiens) (UniProt Q8TDV5); assay: Agonist activity at GPR119 (unknown origin) assessed as increase in cAMP level at 10 uM by cAMP HTRF assay relative to oleoylethanolamide; assay type: functional
Sequence (Q8TDV5 whole entry): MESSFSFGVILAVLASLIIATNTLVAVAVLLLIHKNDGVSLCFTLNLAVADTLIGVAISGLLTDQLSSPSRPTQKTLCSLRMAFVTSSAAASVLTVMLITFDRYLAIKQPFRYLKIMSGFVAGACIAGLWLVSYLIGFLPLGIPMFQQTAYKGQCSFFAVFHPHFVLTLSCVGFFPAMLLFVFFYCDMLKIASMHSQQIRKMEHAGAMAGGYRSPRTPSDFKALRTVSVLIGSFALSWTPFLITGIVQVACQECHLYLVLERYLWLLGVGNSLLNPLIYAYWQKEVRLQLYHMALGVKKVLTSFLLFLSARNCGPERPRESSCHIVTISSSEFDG
// units = %; emit number, no label

// known answers, use as guide
>  <entry smiles>
CC(C)(C)OC(=O)N1CC=C(c2nc(COc3ccc(C4CCCCC4)cc3)cs2)CC1

>  <Emax [%]>
19.7

$$$$
>  <entry smiles>
CC(C)(C)OC(=O)N1CC=C(c2nc(COc3ccc(OC(F)(F)F)cc3)cs2)CC1

>  <Emax [%]>
7.04

$$$$
>  <entry smiles>
CCc1cnc(N2CC=C(c3nc(COc4ccc(-n5cnnn5)cc4Cl)cs3)CC2)nc1

>  <Emax [%]>
109

$$$$
>  <entry smiles>
CCc1ccc(N2CC=C(c3nc(COc4ccc(S(C)(=O)=O)cc4)cs3)CC2)nc1

>  <Emax [%]>
71.5

$$$$
>  <entry smiles>
CCc1cnc(N2CCC(c3nc(COc4ccc(-n5cnnn5)cc4)cs3)CC2)nc1

>  <Emax [%]>
113

$$$$

Request: Provide the documented Emax with Glucose-dependent insulinotropic receptor (Homo sapiens) (UniProt Q8TDV5) as the system for `CC(C)(C)OC(=O)N1CC=C(c2nc(COc3ccc(S(C)(=O)=O)cc3)cs2)CC1`
Response: 78

Request: Provide the documented Emax with Glucose-dependent insulinotropic receptor (Homo sapiens) (UniProt Q8TDV5) as the system for `CC(C)(C)OC(=O)N1CC=C(c2nc(COc3ccc(Cl)cc3)cs2)CC1`
Response: -7.34

Request: Provide the documented Emax with Glucose-dependent insulinotropic receptor (Homo sapiens) (UniProt Q8TDV5) as the system for `CC(C)(C)OC(=O)N1CC=C(c2nc(COc3ccc(-n4cnnn4)cc3)cs2)CC1`
Response: 95.4

Request: Provide the documented Emax with Glucose-dependent insulinotropic receptor (Homo sapiens) (UniProt Q8TDV5) as the system for `CCc1cnc(N2CC=C(c3nc(COc4ccc(-n5cnnn5)cc4F)cs3)CC2)nc1`
Response: 115

Request: Provide the documented Emax with Glucose-dependent insulinotropic receptor (Homo sapiens) (UniProt Q8TDV5) as the system for `COc1ccc(-n2cnnn2)cc1OCc1csc(C2=CCN(C(=O)OC(C)(C)C)CC2)n1`
Response: 8.4

Request: Provide the documented Emax with Glucose-dependent insulinotropic receptor (Homo sapiens) (UniProt Q8TDV5) as the system for `COc1ccc(NCc2csc(C3=CCN(C(=O)OC(C)(C)C)CC3)n2)cc1OC`
Response: -6.25

Request: Provide the documented Emax with Glucose-dependent insulinotropic receptor (Homo sapiens) (UniProt Q8TDV5) as the system for `CCc1ccc(N2CC=C(c3nc(COc4ccc(-n5cnnn5)cc4F)cs3)CC2)nc1`
Response: 89.6

* * *

# Emax annotations
biological target: Glucose-dependent insulinotropic receptor (Homo sapiens) (UniProt Q8TDV5); assay: Agonist activity at GPR119 (unknown origin) assessed as increase in cAMP level at 10 uM by cAMP HTRF assay relative to oleoylethanolamide; assay type: functional

Request: Sample `COC(=O)c1sccc1NCc1csc(C2=CCN(C(=O)OC(C)(C)C)CC2)n1` — what was its Emax?
Response: 13%

Request: Sample `COc1ccc(C(C)=O)cc1OCc1csc(C2=CCN(C(=O)OC(C)(C)C)CC2)n1` — what was its Emax?
Response: -5.65%

Request: Sample `COc1ccc(OCc2csc(C3=CCN(C(=O)OC(C)(C)C)CC3)n2)cc1OC` — what was its Emax?
Response: 10.7%
